This collection of values is drawn from ChEMBL document CHEMBL3132854.

Could you please report measured growth, % of control at 10 µM for the items listed next?
- System: NCI-H460
- assay: Growth inhibition of human NCI-H460 cells assessed as cell growth at 10 uM by sulforhodamine B assay relative to control; values are per cent of control
Expressed in %, but write only the number.

**Query** What does the record list as growth, % of control at 10 µM for `COc1ccc(/C=C/c2ccc(/C=C/C(=O)c3ccc(Cl)cc3)cc2)cc1` ?
**Result** 101

**Query** Let us now turn to `COc1ccc(C(=O)/C=C/c2ccc(/C=C/c3cc(OC)c(OC)c(OC)c3)cc2)cc1`
**Result** 59.6

**Query** Let us now turn to `COc1ccc(C(=O)/C=C/c2ccc(/C=C/c3ccc(Cl)cc3)cc2)cc1`
**Result** 102

**Query** Let us now turn to `COc1ccc(C(=O)/C=C/c2ccc(/C=C/c3ccc(F)cc3)cc2)cc1`
**Result** 104

---

- Tested on: CAKI-1
- assay: Growth inhibition of human CAKI-1 cells assessed as cell growth at 10 uM by sulforhodamine B assay relative to control; values are per cent of control
assay metric: growth, % of control at 10 µM (%)
Expressed in %, but write only the number.

**Query** What does the record list as growth, % of control at 10 µM for `COc1ccc(C(=O)/C=C/c2ccc(/C=C/c3ccc(Cl)cc3)cc2)cc1` ?
**Result** 93.9

**Query** Let us now turn to `COc1ccc(/C=C/c2ccc(/C=C/C(=O)c3ccc(Cl)cc3)cc2)cc1`
**Result** 92.4

**Query** Let us now turn to `COc1ccc(C(=O)/C=C/c2ccc(/C=C/c3cc(OC)c(OC)c(OC)c3)cc2)cc1`
**Result** 74.4

**Query** Let us now turn to `COc1ccc(C(=O)/C=C/c2ccc(/C=C/c3ccc(F)cc3)cc2)cc1`
**Result** 91.2

---

Could you please report measured growth, % of control at 10 µM for the items listed next?
- System: MDA-MB-231
- assay: Growth inhibition of human MDA-MB-231 cells assessed as cell growth at 10 uM by sulforhodamine B assay relative to control; values are per cent of control
Expressed in %, but write only the number.

**Query** What does the record list as growth, % of control at 10 µM for `COc1ccc(C(=O)/C=C/c2ccc(/C=C/c3cc(OC)c(OC)c(OC)c3)cc2)cc1` ?
**Result** 76.8

**Query** Let us now turn to `COc1ccc(C(=O)/C=C/c2ccc(/C=C/c3ccc(F)cc3)cc2)cc1`
**Result** 116

**Query** Let us now turn to `COc1ccc(/C=C/c2ccc(/C=C/C(=O)c3ccc(Cl)cc3)cc2)cc1`
**Result** 117

**Query** Let us now turn to `COc1ccc(C(=O)/C=C/c2ccc(/C=C/c3ccc(Cl)cc3)cc2)cc1`
**Result** 103

---

- Test system: NCI-H23
- assay: Growth inhibition of human NCI-H23 cells assessed as cell growth at 10 uM by sulforhodamine B assay relative to control; values are per cent of control
assay metric: growth, % of control at 10 µM (%)
Expressed in %, but write only the number.

**Query** What does the record list as growth, % of control at 10 µM for `COc1ccc(C(=O)/C=C/c2ccc(/C=C/c3ccc(F)cc3)cc2)cc1` ?
**Result** 98.1

**Query** Let us now turn to `COc1ccc(C(=O)/C=C/c2ccc(/C=C/c3ccc(Cl)cc3)cc2)cc1`
**Result** 103

**Query** Let us now turn to `COc1ccc(C(=O)/C=C/c2ccc(/C=C/c3cc(OC)c(OC)c(OC)c3)cc2)cc1`
**Result** 43.5

**Query** Let us now turn to `COc1ccc(/C=C/c2ccc(/C=C/C(=O)c3ccc(Cl)cc3)cc2)cc1`
**Result** 100

---

- assay: Growth inhibition of human UO31 cells assessed as cell growth at 10 uM by sulforhodamine B assay relative to control; values are per cent of control
- experimental context: UO-31
Could you please report measured growth, % of control at 10 µM for the items listed next?
Expressed in %, but write only the number.

**Query** What does the record list as growth, % of control at 10 µM for `COc1ccc(C(=O)/C=C/c2ccc(/C=C/c3ccc(F)cc3)cc2)cc1` ?
**Result** 94.4

**Query** Let us now turn to `COc1ccc(C(=O)/C=C/c2ccc(/C=C/c3cc(OC)c(OC)c(OC)c3)cc2)cc1`
**Result** 40.5

**Query** Let us now turn to `COc1ccc(C(=O)/C=C/c2ccc(/C=C/c3ccc(Cl)cc3)cc2)cc1`
**Result** 102

**Query** Let us now turn to `COc1ccc(/C=C/c2ccc(/C=C/C(=O)c3ccc(Cl)cc3)cc2)cc1`
**Result** 80.7

---

Could you please report measured growth, % of control at 10 µM for the items listed next?
- assay: Growth inhibition of human HOP92 cells assessed as cell growth at 10 uM by sulforhodamine B assay relative to control; values are per cent of control
- experimental context: HOP-92
Expressed in %, but write only the number.

**Query** What does the record list as growth, % of control at 10 µM for `COc1ccc(C(=O)/C=C/c2ccc(/C=C/c3cc(OC)c(OC)c(OC)c3)cc2)cc1` ?
**Result** 51.9

**Query** Let us now turn to `COc1ccc(C(=O)/C=C/c2ccc(/C=C/c3ccc(Cl)cc3)cc2)cc1`
**Result** 102

**Query** Let us now turn to `COc1ccc(C(=O)/C=C/c2ccc(/C=C/c3ccc(F)cc3)cc2)cc1`
**Result** 108

**Query** Let us now turn to `COc1ccc(/C=C/c2ccc(/C=C/C(=O)c3ccc(Cl)cc3)cc2)cc1`
**Result** 98.5

---

- Tested on: HL-60(TB)
- assay: Growth inhibition of human HL-60(TB) cells assessed as cell growth at 10 uM by sulforhodamine B assay relative to control
- Type: functional
- experimental context: values are per cent of control
assay metric: growth, % of control at 10 µM (%)
Expressed in %, but write only the number.

**Query** What does the record list as growth, % of control at 10 µM for `COc1ccc(C(=O)/C=C/c2ccc(/C=C/c3ccc(Cl)cc3)cc2)cc1` ?
**Result** 94.4

**Query** Let us now turn to `COc1ccc(/C=C/c2ccc(/C=C/C(=O)c3ccc(Cl)cc3)cc2)cc1`
**Result** 92.2

**Query** Let us now turn to `COc1ccc(C(=O)/C=C/c2ccc(/C=C/c3cc(OC)c(OC)c(OC)c3)cc2)cc1`
**Result** 21.5

**Query** Let us now turn to `COc1ccc(C(=O)/C=C/c2ccc(/C=C/c3ccc(F)cc3)cc2)cc1`
**Result** 101

---

- Tested on: NCI-H322M
- assay: Growth inhibition of human NCI-H322M cells assessed as cell growth at 10 uM by sulforhodamine B assay relative to control; values are per cent of control
Could you please report measured growth, % of control at 10 µM for the items listed next?
Param answer (str): number followed by unit.

**Query** What does the record list as growth, % of control at 10 µM for `COc1ccc(C(=O)/C=C/c2ccc(/C=C/c3ccc(F)cc3)cc2)cc1` ?
**Result** 99.6%

**Query** Let us now turn to `COc1ccc(C(=O)/C=C/c2ccc(/C=C/c3ccc(Cl)cc3)cc2)cc1`
**Result** 76.6%

**Query** Let us now turn to `COc1ccc(C(=O)/C=C/c2ccc(/C=C/c3cc(OC)c(OC)c(OC)c3)cc2)cc1`
**Result** 64.8%

**Query** Let us now turn to `COc1ccc(/C=C/c2ccc(/C=C/C(=O)c3ccc(Cl)cc3)cc2)cc1`
**Result** 97%

---

Could you please report measured growth, % of control at 10 µM for the items listed next?
- Tested on: A498
- assay: Growth inhibition of human A498 cells assessed as cell growth at 10 uM by sulforhodamine B assay relative to control; values are per cent of control
Expressed in %, but write only the number.

**Query** Please state recorded growth, % of control at 10 µM (tested on A498) of `COc1ccc(C(=O)/C=C/c2ccc(/C=C/c3ccc(Cl)cc3)cc2)cc1`
**Result** 78.1

**Query** Let us now turn to `COc1ccc(C(=O)/C=C/c2ccc(/C=C/c3cc(OC)c(OC)c(OC)c3)cc2)cc1`
**Result** 80

**Query** Let us now turn to `COc1ccc(/C=C/c2ccc(/C=C/C(=O)c3ccc(Cl)cc3)cc2)cc1`
**Result** 76

**Query** Let us now turn to `COc1ccc(C(=O)/C=C/c2ccc(/C=C/c3ccc(F)cc3)cc2)cc1`
**Result** 87.5

---

- System: OVCAR-3
- assay: Growth inhibition of human OVCAR3 cells assessed as cell growth at 10 uM by sulforhodamine B assay relative to control; values are per cent of control
assay metric: growth, % of control at 10 µM (%)
Expressed in %, but write only the number.

**Query** What does the record list as growth, % of control at 10 µM for `COc1ccc(/C=C/c2ccc(/C=C/C(=O)c3ccc(Cl)cc3)cc2)cc1` ?
**Result** 101

**Query** Let us now turn to `COc1ccc(C(=O)/C=C/c2ccc(/C=C/c3cc(OC)c(OC)c(OC)c3)cc2)cc1`
**Result** 41.4

**Query** Let us now turn to `COc1ccc(C(=O)/C=C/c2ccc(/C=C/c3ccc(Cl)cc3)cc2)cc1`
**Result** 101

**Query** Let us now turn to `COc1ccc(C(=O)/C=C/c2ccc(/C=C/c3ccc(F)cc3)cc2)cc1`
**Result** 112
